This document collects AC50 values reported for Cytochrome P450 2D6 (Homo sapiens).
experimental_readout: AC50

Cc1noc(C)c1C(=O)OCC(=O)NC(c1ccccc1)c1ccccc1; 3.16 µM (inconclusive)
CCn1c2ccccc2c2cc(/N=C3/SC(CC(=O)Nc4ccccc4)C(=O)N3C)ccc21 (stereo not given); 7.08 µM (inconclusive)
O[C@@H](C1=C/C(=C\c2ccncc2)c2ccccc21)c1ccncc1; 1.58 µM (inconclusive)
O=C(NCc1ccccc1Cl)c1ccc2c(=O)n(CCCN3CCCC3=O)c(=S)[nH]c2c1; 22.4 µM (inconclusive)
CCn1c(SCC(=O)N2CCN(S(=O)(=O)c3ccccc3)CC2)nnc1-c1cccs1; 17.8 µM (inconclusive)
CN1CCN(c2nc(-c3ccccc3C(F)(F)F)nc3ccccc23)CC1; 39.8 µM (inconclusive)
COc1ccc(S(=O)(=O)NCCC(=O)NCc2ccc(F)cc2)cc1; 50.1 µM (inconclusive)
N#Cc1cccc(-c2nc3cnc(Nc4ccccc4)nc3n(C[C@H]3CCCO3)c2=O)c1; 1 µM (inconclusive)
COC(=O)[C@@]1(Cc2ccccc2)[C@H]2c3cc(C(=O)N4CCCC4)n(CCN4CNCC4=O)c3C[C@H]2CN1C(=O)c1ccccc1; 39.8 µM (inconclusive)
CCc1ccc(N(C(=O)c2ccoc2C)C(C(=O)NC2CCCC2)c2ccc(OC)cc2)cc1 (stereo not given); 15.8 µM (inconclusive)

###

tested on: H9c2; assay: cells; type: functional, cell-based; conditions: Rattus norvegicus, H9c2, Myocardium;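 also: cell death induced by hydrogen peroxide oxidative stress; compound pretreatment for 60 min then peroxide exposure for 2 h; potency is for protecting the cells against peroxide damage rather than for killing them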;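 also: confirmatory concentration-response retest of ultra-high-throughput screening hits for modulation of myocardial damage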
Calls of active or inactive are those of the source.
Labels: active, inactive

NC(=O)c1cccc(Nc2nc(C(N)COCc3ccccc3)cs2)n1 (centres undefined); active
O=C(CCc1nc(O)c2ccccc2n1)NNC(=O)COc1cccc(F)c1; inactive
O=C(COC(=O)Cc1nnc(O)c2ccccc12)Nc1ccc(Cl)cn1; inactive
Cc1cc(C(=O)N/N=C/c2c(CO)cnc(C)c2O)c2ccccc2n1; inactive

###

biological target: Voltage-dependent T-type calcium channel subunit alpha-1H (Homo sapiens, UniProt O95180); format: functional;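 also: channel activity triggered by adding a high calcium stimulation buffer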
Sequence (O95180 whole entry): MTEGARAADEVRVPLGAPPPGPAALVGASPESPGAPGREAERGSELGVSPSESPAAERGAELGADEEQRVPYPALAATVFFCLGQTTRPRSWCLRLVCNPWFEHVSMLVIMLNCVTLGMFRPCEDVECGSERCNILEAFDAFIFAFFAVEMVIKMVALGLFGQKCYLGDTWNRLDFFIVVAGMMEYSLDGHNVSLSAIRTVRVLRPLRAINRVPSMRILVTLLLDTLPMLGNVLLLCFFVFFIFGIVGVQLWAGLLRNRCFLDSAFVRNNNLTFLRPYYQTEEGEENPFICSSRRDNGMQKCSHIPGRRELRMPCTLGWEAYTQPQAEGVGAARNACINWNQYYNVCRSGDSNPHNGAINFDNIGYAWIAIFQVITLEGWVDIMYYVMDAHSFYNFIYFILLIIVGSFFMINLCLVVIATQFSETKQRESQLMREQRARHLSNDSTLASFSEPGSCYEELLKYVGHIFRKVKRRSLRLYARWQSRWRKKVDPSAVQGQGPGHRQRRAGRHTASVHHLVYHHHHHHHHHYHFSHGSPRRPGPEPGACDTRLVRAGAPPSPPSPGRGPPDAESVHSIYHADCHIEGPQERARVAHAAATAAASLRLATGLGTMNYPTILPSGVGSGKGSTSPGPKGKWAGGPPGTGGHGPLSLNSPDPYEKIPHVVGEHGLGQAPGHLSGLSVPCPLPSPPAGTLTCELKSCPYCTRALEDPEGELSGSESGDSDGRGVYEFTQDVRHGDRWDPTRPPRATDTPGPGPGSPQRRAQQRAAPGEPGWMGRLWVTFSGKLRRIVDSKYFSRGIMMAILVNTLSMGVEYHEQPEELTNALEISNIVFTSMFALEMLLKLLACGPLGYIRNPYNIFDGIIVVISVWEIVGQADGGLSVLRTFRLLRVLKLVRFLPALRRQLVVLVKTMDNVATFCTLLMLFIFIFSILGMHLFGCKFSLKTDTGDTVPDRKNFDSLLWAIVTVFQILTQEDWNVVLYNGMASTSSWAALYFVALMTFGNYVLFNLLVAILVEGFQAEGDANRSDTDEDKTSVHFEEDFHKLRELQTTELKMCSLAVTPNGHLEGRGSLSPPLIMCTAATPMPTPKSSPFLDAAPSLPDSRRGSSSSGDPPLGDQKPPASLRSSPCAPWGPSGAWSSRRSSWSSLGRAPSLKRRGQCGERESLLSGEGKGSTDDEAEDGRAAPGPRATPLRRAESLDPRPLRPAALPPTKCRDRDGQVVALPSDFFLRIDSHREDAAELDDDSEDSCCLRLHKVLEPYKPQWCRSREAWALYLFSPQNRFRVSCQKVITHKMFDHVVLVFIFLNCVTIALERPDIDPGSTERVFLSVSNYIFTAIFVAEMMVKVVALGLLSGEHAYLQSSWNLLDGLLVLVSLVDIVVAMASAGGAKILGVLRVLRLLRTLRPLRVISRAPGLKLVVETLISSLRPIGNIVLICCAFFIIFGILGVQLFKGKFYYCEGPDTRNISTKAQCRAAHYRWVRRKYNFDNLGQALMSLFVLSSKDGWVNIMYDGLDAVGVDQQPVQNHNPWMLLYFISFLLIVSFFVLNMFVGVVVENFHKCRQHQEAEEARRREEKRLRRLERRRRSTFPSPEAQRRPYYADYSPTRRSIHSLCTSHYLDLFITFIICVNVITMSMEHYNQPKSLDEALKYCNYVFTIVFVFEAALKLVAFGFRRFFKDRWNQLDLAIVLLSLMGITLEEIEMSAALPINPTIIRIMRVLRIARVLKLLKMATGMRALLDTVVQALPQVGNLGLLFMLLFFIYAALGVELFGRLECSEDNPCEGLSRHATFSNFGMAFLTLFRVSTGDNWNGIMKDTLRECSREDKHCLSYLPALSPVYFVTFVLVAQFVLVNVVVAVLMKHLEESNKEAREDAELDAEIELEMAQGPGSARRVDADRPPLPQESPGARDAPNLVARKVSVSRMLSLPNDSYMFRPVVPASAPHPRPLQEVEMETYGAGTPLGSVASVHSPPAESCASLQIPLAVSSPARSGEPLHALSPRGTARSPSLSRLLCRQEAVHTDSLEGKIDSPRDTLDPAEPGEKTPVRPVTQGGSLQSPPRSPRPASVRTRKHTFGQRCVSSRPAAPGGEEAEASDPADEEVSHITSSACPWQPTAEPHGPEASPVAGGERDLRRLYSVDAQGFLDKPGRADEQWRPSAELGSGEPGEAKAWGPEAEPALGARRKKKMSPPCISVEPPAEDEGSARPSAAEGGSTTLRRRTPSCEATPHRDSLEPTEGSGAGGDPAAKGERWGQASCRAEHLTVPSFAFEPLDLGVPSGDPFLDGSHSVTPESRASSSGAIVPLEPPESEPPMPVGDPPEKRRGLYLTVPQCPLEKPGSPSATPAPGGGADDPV
Calls of active or inactive are those of the source.
Known EC50 of a selection of compounds
experimental_readout: EC50

Cc1ccc(-c2nnn(CC(=O)N(c3ccccc3F)C(CC(C)C)C(=O)NCC3CCCO3)n2)cc1 (configuration not stated); 5.3 µM (active)
COc1ccc(C(C(O)C(=O)c2c[nH]c3ccccc23)N2CCN(c3ccccc3)CC2)cc1 (configuration not stated); 8.16 µM (active)
Cc1n[nH]c(C)c1N1C(=O)c2cccc3c(N4CCCCCC4)ccc(c23)C1=O; 1.04 µM (active)
O=C(Nc1nc2ccccc2s1)C1CCCN1S(=O)(=O)c1ccc(Cl)cc1 (configuration not stated); 5.86 µM (active)
O=C(CCC1COc2ccccc2O1)Nc1ccc(Cl)cn1 (configuration not stated); 2.94 µM (active)
O=C(Nc1cc(C(F)(F)F)cc(C(F)(F)F)c1)c1ccc(Cn2cc(C(F)(F)F)ccc2=O)cc1; 5.74 µM (active)
CCC1CCCCN1S(=O)(=O)c1ccc(C(=O)Nc2nnc(-c3cccs3)o2)cc1 (configuration not stated); 1.44 µM (active)

###

experiment: NIH3T3 cell viability loss – ATP luminescence, mouse fibroblasts, counter-screen, dose response (AID 2010); type: functional, cell-based;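 also: cells exposed to compound for about 90 hours before reading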
Activity calls are given as the source filed them.
experimental_readout: EC50

Clc1ccc(-c2csc(N/N=C\c3cccnc3)n2)cc1; > 60 µM (not active)
CCN(CC)CCNc1nc2cc(OC)c(OC)cc2c2nc(-c3ccccc3)nn12; > 30 µM (not active)
COCc1cc(CN2CCCC(CNC(=O)c3ccc(F)cc3)C2)ccc1OC (stereo unspecified); > 60 µM (not active)
CCCCn1c(=N)n(CC(=O)C(C)(C)C)c2ccccc21; > 60 µM (not active)
O=C(NCC1CCCO1)c1ccc([N+](=O)[O-])s1 (stereo unspecified); > 30 µM (not active)
Cc1nn2c(N3CCN(C)CC3)cc(C(C)(C)C)nc2c1-c1ccccc1; 4.77 µM (active)
